Test system: OVCAR-3 ovarian
Experiment: NCI tumour cell line growth inhibition, 48 h
EXPERIMENTAL READOUT: GI50

Answered examples (5):
Test item Cc1cc(S(=O)(=O)Nc2nc3ccccc3c(=O)n2Cc2ccco2)c(S)cc1Cl ; OVCAR-3 ovarian; reported GI50 was 30.5 µM

The molecule CCCCCCCCCCCCC(O)C1CCC(C(O)CCCCC(O)CCCCCC2CC(CC(C)=O)C(=O)O2)O1 (stereo unspecified) , when measured on OVCAR-3 ovarian, yielded GI50 of 1.37 µM

Value sought: GI50, system OVCAR-3 ovarian, item Cc1nc2ccc(-n3ncc(C(=O)c4cc5ccccc5[nH]4)c3N)cc2[nH]1 . Result: 11.2 µM

The reported GI50 value, OVCAR-3 ovarian, for CCc1ccc(Oc2c(-c3ccc(OCCc4cccc(C(F)(F)F)c4)cc3O)n[nH]c2C(F)(F)F)cc1 reads 1.52 µM

Simply: COc1cc(/C=C2\CC3C4CCC5=CC(=O)CC[C@]5(C)C4CC[C@]3(C)C2=O)ccc1OCCN1CCCC1 (stereo partly specified) , OVCAR-3 ovarian, GI50 = 2.37 µM

Now let's try a different one.
Readout GI50 for CCN1CCN(Cc2ccc(Nc3ncc(F)c(-c4cc(F)c5nc(C)n(C(C)C)c5c4)n3)nc2)CC1 , test system OVCAR-3 ovarian, was 6.34 µM

---

Entries and their GI50 values follow.
Test system: HOP-62 NSCLC
Assay: NCI tumour cell line growth inhibition, 48 h

GI50 reported for this molecule CC(C)C[C@H](NC(=O)[C@@H](Cc1ccccc1)n1ccc(Nc2ccccc2)cc1=O)B(O)O : 1740 nM

Recorded result, O=S(=O)(NCCNc1nccc(-c2c(-c3ccc(F)cc3)nc3sccn23)n1)c1ccc(O)cc1 , GI50: 14300 nM

GI50 measured on CCCCCCCCCN=C(N)c1ccc(N2CCN(c3ccc(C(N)=NCCCCCCCCC)cc3)CC2)cc1 = 2720 nM

Short answer for Cc1[nH]c(C(=O)Nc2cccc(OC3CCNCC3)c2)c(Cl)c1Cl : GI50 was 1900 nM

GET /value?item= COc1ccccc1CNCCCN1C(=O)c2ccc3c4c(ccc(c24)C1=O)C(=O)N(CCCNCCCCNCCCN)C3=O &field=GI50 returns 658 nM

In plain terms, CC[O-].CC[O-].O=C1C=C([O-])C(=O)c2ccccc21.O=C1C=C([O-])C(=O)c2ccccc21.[Ti+4] has a documented GI50 of > 100000 nM

GI50 recorded for this molecule, COc1ccc2nc3cc([N+](=O)[O-])ccc3c(NCCO)c2c1 , is 2070 nM

Lookup result for c1cc[n+](Cc2c3ccccc3cc3c2ccc2ccccc23)cc1 ; measured GI50: 2410 nM

// GI50 lookup, molecule = Cc1ccc(C2=NN(c3ccc(S(=O)(=O)NC(=O)NCc4ccccc4)cc3)C(c3ccc(N(C)C)cc3)C2)c(C)c1 (stereo unspecified) , result: 5690 nM

Data point: COc1ccc(N=Nc2ccc(O)c(=O)cc2)cc1 ; GI50 = 4190 nM

get_value(item= NS(=O)(=O)c1ccc(N=Nc2c(O)[nH]c3ccc(C(=O)NCCCn4ccnc4)cc23)cc1 , readout=GI50) returns > 25000 nM

---

Test system: UO-31 renal
Test: NCI tumour cell line growth inhibition, 48 h
EXPERIMENTAL READOUT: TGI (µM)
Give just the number in µM; leave the unit off.

Below, 4 compounds whose answers are already recorded.
Item: C=C(C(=O)c1ccccc1)C(NC(C)(C)C)c1ccccc1 (configuration not stated) | TGI: 2.85

Looking up CCCCCCCCCCCCCCCCCCN(C)CC(COC)OP(=O)([O-])OCC[N+](C)(C)C (configuration not stated) , I see its TGI listed as 20.2

Lab book: TGI of COc1cccc(CCn2c(N)c(-c3cc(Cl)cc(Cl)c3)c3ccc([N+](=O)[O-])cc3c2=O)c1 noted as 25.5

In plain terms, Cc1[nH]c(C(=O)Nc2cccc(OC3CCNCC3)c2)c(Cl)c1Cl has a documented TGI of 2.94

Continuing:
GET /value?item= COc1ccc2c(O)c1-c1c(OC)ccc(c1O)SSc1ccc(OC)c(c1O)-c1c(OC)ccc(c1O)SS2 &field=TGI returns 14

TGI reported for this compound Cc1nn(CNc2ccc(F)c(Cl)c2)c(=S)n1/N=C/c1ccc(-c2ccc(Cl)cc2Cl)o1 : 32.2

Record summary for CS(=O)(=O)Nc1cc(-c2ccc3ncc(C#N)c(Nc4ccc(F)c(Cl)c4)c3c2)cnc1Cl : reported TGI = 1.03

The compound listed as N#Cc1c(C#N)c(SSc2c(C#N)c(C#N)c(N)n2-c2cccc3ccccc23)n(-c2cccc3ccccc23)c1N shows TGI equal to 6.02

Short answer for COc1ccc(C[C@H]2COC(=O)[C@@H]2Cc2ccc(Br)cc2)cc1OC : TGI was 24.2

Form: compound = CCCCCC(=O)OC[n+]1ccc2c(C)c3[nH]c4ccc(OC)cc4c3c(C)c2c1 ; TGI = 3.31

In plain terms, Cn1cc(-c2csc(-c3ccccc3)n2)c2cccnc21 has a documented TGI of 28.3

CN(C)CCC(=O)[C@@]1(O)CC[C@H]2[C@@H]3CC=C4C[C@@H](O)CC[C@]4(C)[C@H]3CC[C@@]21C has a reported TGI of 31.7

---

Test system: DU-145 prostate
Test: NCI tumour cell line growth inhibition, 48 h
Entries and their TGI values follow.
Numeric answer only, unit µM assumed.

Tested system DU-145 prostate; TGI recorded for CCC1=CC(OCc2ccccc2)C(CCN(Cc2ccccc2)C(=O)OCc2ccccc2)C1 (stereo unspecified) was 30.2

Query COC1(OC)CCN(Cc2ccccc2)C1=O on DU-145 prostate; TGI returned: 29.2

Then this molecule:
Observed TGI, DU-145 prostate, Cc1ccc(NC(=S)NNC(=S)Nc2ccc(C)cc2)cc1 : 59.2

---

System: NCI-H460 lung
Experiment: NCI tumour cell line growth inhibition, 48 h
EXPERIMENTAL READOUT: TGI

Reading of TGI for Cn1c2ncccc2n2c(=O)cc(O)cc12 with NCI-H460 lung: > 100 µM

Per the reported NCI-H460 lung data, O=C1CSC(c2ccccc2)N1c1ccc(-c2ccc(-n3c(-c4ccccc4)nc4ccccc4c3=O)cc2)cc1 (stereo not given) has TGI of > 100 µM

Case CCCCC(CC)C(=O)Oc1ccc(C(=O)c2ccccc2)c(O)c1 (stereo not given) , NCI-H460 lung, TGI recorded as > 100 µM

Further cases:
GET /values?item= CCOC(=O)/C(=C\c1c[nH]c2ccccc12)P(=O)(OCC)OCC &system= NCI-H460 lung returns TGI: 61.9 µM

Value sought: TGI, system NCI-H460 lung, item CCC1(c2ccc(OC)c(OC)c2)CCN(S(=O)(=O)c2ccc(C)cc2)C1 (stereo not given) . Result: > 100 µM

Given the molecule CC/C(Cl)=N\OC(=O)Nc1ccc(F)c(Cl)c1 and test system NCI-H460 lung, the measured TGI is 34.3 µM

---

Reported GI50 values for the following compounds.
Tested on: NCI/ADR-RES ovarian
Experiment: NCI tumour cell line growth inhibition, 48 h

These solved cases illustrate the format of a correct answer.
Sample COC(=O)C1C(C(=O)O)C2(c3ccccc3)C(=O)C1(c1ccccc1)C(c1ccc(OC)cc1)=C2c1ccc(OC)cc1 (stereo not given) , system: NCI/ADR-RES ovarian. Its GI50 is 20.6 µM

Field GI50 (system: NCI/ADR-RES ovarian) for entry COc1ccc2[nH]c(C(=O)OCc3ccc4c(Br)cc(Br)c(O)c4n3)cc2c1 = 1.68 µM

With NCI/ADR-RES ovarian as the test system, COc1ccc(-c2cc(=O)c3c(OC)c4ccoc4c(/C=C/C=O)c3o2)cc1 showed GI50 of 2.84 µM

Form field GI50 for item C=C(C(=O)c1ccccc1)C(NC(C)(C)C)c1ccccc1 (stereo not given) on NCI/ADR-RES ovarian: 2.63 µM

I looked up COc1cc(/C=C2\CC3C4CCC5=CC(=O)CC[C@]5(C)C4CC[C@]3(C)C2=O)ccc1OCCN1CCCC1 (stereo not given in full) and its GI50 for NCI/ADR-RES ovarian was 2.45 µM

Note to self: GI50 of NC(=O)c1c[nH]c2ncnc(N)c12 with NCI/ADR-RES ovarian was > 100 µM

Assay NCI/ADR-RES ovarian, sample CCN1CCN(Cc2ccc(Nc3ncc(F)c(-c4cc(F)c5nc(C)n(C(C)C)c5c4)n3)nc2)CC1 , GI50 read: 10.4 µM

Tested system NCI/ADR-RES ovarian; GI50 recorded for O=S(=O)(NCCNc1nccc(-c2c(-c3ccc(F)cc3)nc3sccn23)n1)c1ccc(O)cc1 was 19.5 µM

Next:
The recorded GI50 with NCI/ADR-RES ovarian for COc1ccc(-c2nc3sccn3c2-c2ccnc(NCCNS(=O)(=O)c3ccc(C(F)(F)F)cc3)n2)cc1 was 3.12 µM

Form field GI50 for item O=C(Cc1cc(O)ccc1O)NO on NCI/ADR-RES ovarian: > 100 µM
